Here the recorded melting point is given for each entry.
Where a name gives a salt, the structure may show the parent alone.

| Molecule | melting point |
| --- | --- |
| O=C(C=CC=Cc1ccc(Cl)c(Cl)c1)NCCCN1CCOCC1 | 130 to 132 °C |
| O=C(/C=C/C=C/c1ccc2ccccc2c1)NCCCN1CCCCC1 | 150 to 156 °C |
| O=C(/C=C/C=C(c1ccccc1)c1ccccc1)NCCCN1CCCCC1 | 55 to 65 °C |
| C/C(=C\C=C\C(=O)NCCCN1CCCCC1)c1ccc(Cl)c(Cl)c1 | 65 to 70 °C |
| COc1ccc(/C=C/C=C/C(=O)NCCCN2CCCCC2)cc1 | 69 to 73 °C |
| O=C(/C=C/C=C/c1ccc(-c2ccccc2)cc1)NCCCN1CCCCC1 | 165 to 168 °C |
| O=C(/C=C/C=C/c1ccc(Cl)c(Cl)c1)NCCCN1CCCCC1 (as salt: HCl) | 192 to 194 °C |
| O=C(/C=C/C=C/c1ccc(Cl)cc1Cl)NCCCN1CCCCC1 | 66 to 69 °C |
| Cc1ccc(/C=C/C=C/C(=O)NCCCN2CCCCC2)cc1 | 40 to 50 °C |
| O=C(/C=C/C=C/c1ccc([N+](=O)[O-])cc1)NCCCN1CCCCC1 | 225 to 226 °C |
| CC(/C=C/c1ccc(Cl)c(Cl)c1)=C\C(=O)NCCCN1CCCCC1 | 165 to 170 °C |
| CC(=C/C(=O)NCCCN1CCCCC1)/C=C/c1ccc(Cl)c(Cl)c1 | 50 to 60 °C |
| O=C(/C=C/C=C/c1cc(Cl)cc(Cl)c1)NCCCN1CCCCC1 | 186 to 187 °C |
| O=C(/C=C/C=C/c1ccccc1)NCCCN1CCCCC1 | 111 to 115 °C |
| O=C(/C=C/C=C/c1ccc(Cl)cc1)NCCCN1CCCCC1 | 60 to 62 °C |

---

pIC50: −log10 of the molar value.
MCP-1 receptor (Homo sapiens): reported pIC50 for various compounds.
Sequence (P41597 whole entry): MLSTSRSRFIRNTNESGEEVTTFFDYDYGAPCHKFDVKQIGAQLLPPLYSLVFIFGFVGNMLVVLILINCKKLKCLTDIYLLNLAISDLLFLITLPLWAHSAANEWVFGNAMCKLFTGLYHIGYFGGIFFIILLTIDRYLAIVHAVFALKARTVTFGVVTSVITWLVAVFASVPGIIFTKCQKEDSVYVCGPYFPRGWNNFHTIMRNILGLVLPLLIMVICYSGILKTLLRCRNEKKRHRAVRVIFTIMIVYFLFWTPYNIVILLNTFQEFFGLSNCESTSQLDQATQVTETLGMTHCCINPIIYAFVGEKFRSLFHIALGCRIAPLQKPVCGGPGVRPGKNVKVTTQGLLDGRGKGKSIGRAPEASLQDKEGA

| Smiles Entry | pIC50 |
| --- | --- |
| O=C(C=CC=Cc1ccc(Cl)c(Cl)c1)NCCCN1CCOCC1 | 4.97 |
| O=C(/C=C/C=C/c1ccc(Cl)c(Cl)c1)NCCCN1CCCCC1 | 5.66 |
